Structures can show the parent of a compound that is named as a salt.
Data export: pKi values recorded with human cloned 5-HT6 receptors (Homo sapiens, UniProt P50406).
Sequence (P50406 whole entry): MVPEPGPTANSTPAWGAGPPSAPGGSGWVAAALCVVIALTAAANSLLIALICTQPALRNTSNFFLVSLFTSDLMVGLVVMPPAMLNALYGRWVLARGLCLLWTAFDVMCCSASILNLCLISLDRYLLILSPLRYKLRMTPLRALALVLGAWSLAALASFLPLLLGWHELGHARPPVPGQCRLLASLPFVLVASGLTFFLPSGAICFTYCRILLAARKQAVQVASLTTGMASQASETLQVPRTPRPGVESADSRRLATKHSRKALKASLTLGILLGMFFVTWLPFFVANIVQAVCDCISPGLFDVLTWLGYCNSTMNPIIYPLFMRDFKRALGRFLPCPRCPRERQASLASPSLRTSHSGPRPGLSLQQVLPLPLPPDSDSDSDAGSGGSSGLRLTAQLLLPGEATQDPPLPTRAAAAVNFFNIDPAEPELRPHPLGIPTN
Please keep in mind that pKi is minus log10 of the molar concentration; only the number is needed.

In the examples that follow, each entry is paired with its recorded pKi.
# molecule, pKi
measured = [
    ("CN1CCC(c2n[nH]c3ccc(S(=O)(=O)c4cccc(F)c4)cc23)CC1", 7.03),
    ("CN1CCC(c2n[nH]c3ccc(S(=O)(=O)c4cccc5ccccc45)cc23)CC1 [Example 4, hydrochloride]", 8.42),
    ("CN1CCC(c2n[nH]c3ccc(S(=O)(=O)c4ccccc4)cc23)CC1", 7.26),
]

Let me check: Cc1cccc(S(=O)(=O)c2ccc3[nH]nc(C4CCN(C)CC4)c3c2)c1 , system human cloned 5-HT6 receptors (Homo sapiens, UniProt P50406), measured pKi is 7.30

Let me check: CN1CCC(c2n[nH]c3ccc(S(=O)(=O)c4ccc(C(F)(F)F)cc4)cc23)CC1 , system human cloned 5-HT6 receptors (Homo sapiens, UniProt P50406), measured pKi is 7.34

Let me check: CC(C)c1ccc(S(=O)(=O)c2ccc3[nH]nc(C4CCN(C)CC4)c3c2)cc1 , system human cloned 5-HT6 receptors (Homo sapiens, UniProt P50406), measured pKi is 7.85
